# Assay notes: yeast display, Sf9 membrane polyspecificity reagent, FACS + sequencing; frameworks hold sequencing errors
Measured parameter: polyreactivity (PSR sort gate)

| Chain sequence | polyreactivity (PSR sort gate) |
| --- | --- |
| QVQLVESGGGLVQAGGSLRLSCAASGSIFRRYAMGWYRQAPGKERELVASISSRGTRTYYADSVKGRFTISRDTAKNTVYLQMNSLKPEDTAVYYCAASYYTPYDYWGQGTQVTVSS | high polyreactivity |
| QDQLVESGGGLVQAGGSLRLSCAASGRIFHGNAMGWYRQARGKEWELVAAISRRGGSTYSADSVKGRFTISRDNAKNTVYLQMNSLKPEDTAVYYCAAVWPYGSRGAPMDYWGQGTQVTVSS | high polyreactivity |
| QVQLVESGGGLVHAGGSLRLSCAASGSTFIYNAMGWDRQAPGKERELVAAITWNGGSTYYADSVKGRFTLSRDIAKNTVYLQMISLNPEDTAVYYCAVDKGSQPHYDYWGQVTQVTVSS | low polyreactivity |
| QVQLVESGGGLVQAGGSLRLSCAASGSTFKKYVMGWYRQAPGKERELVAAISGRGGSTYYADSVKGRFTISRDNAKNTVYLQMNSLKPEDTAVYYCNARKQTARFDSWGQGTQVTVSS | high polyreactivity |
| QVPLVESGGGLVQAGGSLRLSCAASGSIFYTNAMGWSIPAPGKERELVARLSSSSGRTYYADSVKGRFPISRDNAKNTVYLKMKSLIPDYTAVYYCAARYLLRRHTNMDYWGHGTQVTVSS | high polyreactivity |
| QVQLVESGGGLVQEGGSLRLSCAPSGFIFRRNAMGAYRQAPGKERELVAAITKSGGSTYYADSVKGRFTISRDNAKNTVYLQMNSLKPEDTAVYYCAAPTWTRSSFDYWGQGTQVTVSS | high polyreactivity |
| QVQLVESGGGLVQAGGSLGLSCAASGYSLGSYAMGWYRQAPGKERELVAAITSSGGSTYYADSVKGRFTSSRDYAKNTDYLQMNSLKPEDTAVYYCAAERGYHGGGSGLYDYWGQGTQVTVSS | low polyreactivity |
| QDQLVESGGGLVQAGGSLRLSCAASGSTFTDYDMGWYRQAPGKERELVAAITSGGSTNYADSVKGRFTISRDNAKNTVYLQMNSLKPEDTAVYYCAAELRYYLYDVVYIVTYDYWGQGTQVTVSS | low polyreactivity |

Q: So what does the record say about polyreactivity (PSR sort gate) for "QVQLVESGGGLVQAGGSLRLICAASGIFSYYARGWYRQAPGKERELVATISRRGSSTYYADSVKGRFTISRDNAKNTVYLQMNSLKPEDTAVYYCNADIGWGRFSQSFDYWGQGTQVTVSS" ?
Ans: low polyreactivity

Q: So what does the record say about polyreactivity (PSR sort gate) for "QVQLVESGGGLVQAGGSLRLSCAASGRTFKKYALGWYRQAPGKEREVVAAITSRVRSTSYADSVKGRFTISRDNAKNTVYLQMNSLIPEDTAVYYCAARYSVGNGYGYWGQVTQVTVSS" ?
Ans: high polyreactivity

Q: So what does the record say about polyreactivity (PSR sort gate) for "QVQLVESGGGLVQAGGSLRLSCAASGRIFGRNAMGWYIQAPGTERELVAAISKSGTSTYYADSVKGRFTISRDNAKNTVYLQMNSLKPEDTAVYYCAAALPGYGDYYYWGQGTQVTVSS" ?
Ans: high polyreactivity
